Where do the numbers come from? From patent US6803372B2.

study target: human NPY Y5 receptor (Homo sapiens)
Sequence (Q15761 whole entry): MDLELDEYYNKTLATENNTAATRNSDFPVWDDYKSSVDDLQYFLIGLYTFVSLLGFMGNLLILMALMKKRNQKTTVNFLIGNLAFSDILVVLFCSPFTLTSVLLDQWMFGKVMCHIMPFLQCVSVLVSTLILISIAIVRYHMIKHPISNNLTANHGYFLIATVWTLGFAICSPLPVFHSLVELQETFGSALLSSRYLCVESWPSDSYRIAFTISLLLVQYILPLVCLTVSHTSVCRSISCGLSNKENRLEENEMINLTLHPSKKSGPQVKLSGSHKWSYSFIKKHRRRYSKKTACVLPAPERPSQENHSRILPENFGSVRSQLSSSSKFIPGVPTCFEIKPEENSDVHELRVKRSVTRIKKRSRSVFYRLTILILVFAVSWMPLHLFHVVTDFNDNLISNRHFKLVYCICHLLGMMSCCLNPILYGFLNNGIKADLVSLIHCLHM
measured quantity: IC50 (nM)
The reply should contain only the number, in nM.

Please report the recorded IC50 for O=C1OC2(CCC(C(=O)Nc3ccn(-c4ccc(O)cc4F)n3)CC2)c2cnccc21 (stereo not shown) [Example 108] . 3

And for O=C(c1ccccc1)c1ccc(NC(=O)N2CCC3(CC2)NC(=O)c2ccccc23)cc1 [Example 1] ? 1.2

What do you get for O=C1OC2(CCC(C(=O)Nc3cn(-c4cnc5ccccc5c4)cn3)CC2)c2ccccc21 (stereo not shown) [Example 55] ? 0.59

Another compound to look at: O=C1OC2(CCC(C(=O)Nc3ccn(-c4ccccc4F)n3)CC2)c2c[n+]([O-])ccc21 (stereo not shown) [Example 107] 4.6

* * *

Record form. Attribute: melting point. Fill in for each entry.

Look up melting point for this molecule: O=C1Cc2ccccc2C2(CCN(C(=O)Nc3ccc4c(c3)CCCC4=O)CC2)N1 [Example 10] 220.5 to 222.2 °C

O=C1OC2(CCN(C(=O)Nc3ccc4ncc(OC(F)F)cc4n3)CC2)c2ccccc21 [Example 35] , same question. 193 °C

Cool, now O=C1OC2(CCN(C(=O)Nc3cc(-c4ccc(Cl)cc4)[nH]n3)CC2)c2ccccc21 [Example 30] 255 to 258 °C

How about this molecule: O=C1OC2(CCC(C(=O)Nc3cn(-c4cnc5ccccc5c4)cn3)CC2)c2ccccc21 (centres unmarked) [Example 55] > 300 °C

What do we get for COc1cccc(-n2cnc(NC(=O)N3CCC4(CC3)OC(=O)c3ccccc34)c2)c1 [Example 39] ? 208 to 210 °C

Would you mind doing O=C1OC2(CCN(C(=O)Nc3cn(-c4cnc5ccccc5c4)cn3)CC2)c2ccccc21 [Example 28] as well? 251 to 254 °C

What about this molecule? O=C1OC2(CCN(C(=O)Nc3ccc4ncc(C(F)(F)F)cc4n3)CC2)c2ccccc21 [Example 26] 246 to 248 °C

O=C1OC2(CCN(C(=O)Nc3cc(-c4cnc5ccccc5c4)[nH]n3)CC2)c2ccccc21 [Example 31] ? 253 to 257 °C

Likewise for O=C1NC2(CCN(C(=O)Nc3cnc(-c4ccccc4)cn3)CC2)c2ccccc21 [Example 2] ? 286 to 287 °C

And what about the molecule O=C1Cc2ccccc2C2(CCN(C(=O)Nc3cn(-c4cccc(Cl)c4)cn3)CC2)N1 [Example 17] ? 255 to 258 °C

Next up: O=C1Cc2ccccc2C2(CCN(C(=O)Nc3nc4cc(Cl)ccc4o3)CC2)N1 [Example 21] 256 to 258 °C

Also CCn1ccnc1-c1ccc(NC(=O)N2CCC3(CC2)OC(=O)c2ccccc23)cc1 [Example 38] ? 221 to 223 °C

Do the same for Cc1cccc2sc(NC(=O)N3CCC4(CC3)NC(=O)Cc3ccccc34)nc12 [Example 20] please 144 to 146 °C

Check O=C1Cc2ccccc2C2(CCN(C(=O)Nc3cnc(-c4ccccn4)cn3)CC2)N1 [Example 19] too. 223 to 225 °C

Another molecule to check: O=C1Cc2ccccc2C2(CCN(C(=O)Nc3ccc(C(=O)c4ccccn4)cc3)CC2)N1 [Example 15] 162 to 164 °C

Query O=C1Cc2ccccc2C2(CCN(C(=O)Nc3cn(-c4cccc5ccoc45)cn3)CC2)N1 [Example 13] next 192 to 194 °C

Ok, now O=C1Cc2ccccc2C2(CCN(C(=O)Nc3cc(-c4ccccc4)no3)CC2)N1 [Example 12] 239 to 241 °C
